- Tested on: Caenorhabditis elegans L1 (N2)
- assay remarks: survival and reproduction score of C. elegans L1 (0: 0-10 living worms, 1: 11-20, 2: 21-50, 3: >50, 4: overgrown) (score 0-4); higher = more worms, less nematicidal, active = 1 or less; extreme values may be limits of the assay
- condition: 60 µM; 6 days; temperature: 20 °C
// one of 1 for active, 0 for inactive, no free text

{"compound": "COc1ccc(-c2nnc(SCC(=O)Nc3cccc(Cl)c3Cl)o2)cc1", "experimental target": "Caenorhabditis elegans L1 (N2)", "label": 0}
{"compound": "Clc1ccc(-c2nc(-c3cccnc3)no2)c(Cl)c1", "experimental target": "Caenorhabditis elegans L1 (N2)", "label": 0}
{"compound": "CCOc1nc(-c2ccc(C)cc2)ccc1-c1noc(CC)n1", "experimental target": "Caenorhabditis elegans L1 (N2)", "label": 0}
{"compound": "Cc1cc(OCc2nc(-c3cccnc3)no2)c(C)cc1Br", "experimental target": "Caenorhabditis elegans L1 (N2)", "label": 0}

Exam item: Tell me the assay call for Fc1ccc(OCc2nc(-c3ccccc3)no2)cc1 please.
Marked response: 0

Exam item: Tell me the assay call for c1ccc(-c2noc(C3COc4ccccc4O3)n2)cc1 (centres undefined) please.
Marked response: 1

Exam item: Tell me the assay call for O=C(CSc1nnc(-c2ccncc2)o1)Nc1ccccc1Cl please.
Marked response: 0

Exam item: Tell me the assay call for Clc1ccc(-c2noc(-c3cccnc3)n2)cc1 please.
Marked response: 1

Exam item: Tell me the assay call for Cc1ccc(-c2nc(-c3ccc(C(F)(F)F)cc3)no2)cc1 please.
Marked response: 1
